MEASUREMENT PROTOCOL: DPPH free radical scavenging activity assay
CONDITION DETAILS: 0.1 mM DPPH in ethanol, 30 min, 517 nm; mean ± S.E.M (n = 3); read-out: DPPH inhibition activity IC50
MEASURED PROPERTY: IC50 (µM)
Reply numerically in µM, unit not repeated.

Worked examples follow.
| MOLECULE | IC50, µM |
| --- | --- |
| COc1cc(O)cc(CCCCCCC/C=C/CCCCCc2cc(O)cc(O)c2)c1 [Compound 16, dehydrobisgravillol] | 28.9 |
| COC(=O)/C=C/C1(O)C=CC(=O)C=C1 | 23 |
| Oc1cc2cc(c1)Oc1c(O)cc(cc1O)[C@H](O)CCCCCCCCCCCCC2 | 25.7 |
| Oc1cc(O)cc(CCCCCC=CCCCCCCCc2cc(O)cc(O)c2)c1 | 35.2 |
| Oc1cc(O)cc(CCCCCCCCCCCCCCc2cc(O)cc(O)c2)c1 | 31.3 |
| Oc1cc(O)c2c(c1)CCCCC/C=C/CCCCCCCc1cc(O)c-2c(O)c1 [Compound 14, dehydrograviphane] | 2.05 |
| Oc1cc(O)c2c(c1)CCCCCCCCCCCCCCc1cc(O)c-2c(O)c1 | 3.96 |
| Cc1c(C)c2c(c(C)c1O)CC[C@@](C)(CCC[C@H](C)CCC[C@H](C)CCCC(C)C)O2 [α-tocopherol, reference compound] | 3.1 |

// lookup IC50 for Oc1cc2cc(c1)Oc1c(O)cc(cc1O)CCCCCCCCCCCCCC2
28.8

// lookup IC50 for COC(=O)C=Cc1cc(O)ccc1O [Compound 4, methyl 2,5-dihydroxycinnamate]
0.53

Sourced from paper PMC6264741
